- System Under Test: recombinant human mPGES-1 (Homo sapiens, UniProt O14684)
- Construct: made in house; host or cells: Rosetta E. coli (microsomal/membrane fraction)
- Sequence (O14684 1-152): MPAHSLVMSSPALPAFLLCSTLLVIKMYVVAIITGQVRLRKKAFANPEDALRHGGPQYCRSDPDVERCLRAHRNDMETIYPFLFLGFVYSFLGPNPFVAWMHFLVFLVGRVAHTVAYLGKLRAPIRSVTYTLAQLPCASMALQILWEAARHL
- Assay Comment: mPGES-1 inhibition, HTRF detection of PGE2
- Assay type: biochemical
- Protocol: Microsomes from Rosetta E. coli bacteria expressing recombinant human mPGES-1 is dissolved in 0.1 M KPi pH 7.4 buffer containing 2.5 mM GSH. 50 μl of the enzyme is subsequently dispensed in a 384-well plate. […] After over night incubation the fluorescence is measured by the use of an appropriate microplate reader. […] The extent of the specific FRET is measured as a ratio of the emission intensity at 665 nm vs. that at 620 nm. […]
Measured inhibition at 10 µM by item
Quantity: inhibition at 10 µM (%)

Molecule	Quantity	Reading Unit	Measured Number
Cn1c(Nc2c(Cl)cccc2Cl)nc2cc(C(=O)NC3CCC4(CC4)C3)cnc21 (stereo not shown)	inhibition at 10 µM	%	100
O=C(Nc1ccc(Br)cc1)c1cc2nc(Nc3c(Cl)cc(F)cc3Cl)[nH]c2nc1OCC(F)F	inhibition at 10 µM	%	100
CC1(C)CCCC(NC(=O)c2cnc3[nH]c(Nc4c(Cl)cccc4Cl)nc3c2)C1 (stereo not shown)	inhibition at 10 µM	%	100
O=C(Nc1ccc(Br)cc1)c1cc2nc(Nc3c(Cl)cc(F)cc3Cl)[nH]c2nc1OCC(F)(F)F	inhibition at 10 µM	%	99
